Test system: sheep red blood cells;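 also: hemolysis expressed in % from supernatant absorbance, with PBS-treated cells as 0% baseline and melittin as 100%, peptide mixed 1:1 with an 8% v/v erythrocyte suspension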
Settings: 100 μg/mL peptide; sheep red blood cells in PBS, 37°C, 1 h, OD576, relative to melittin; mean ± SD, three repeats
Where a SMILES comes first, the peptide text is derived from it.
Binary classification by Hemolytic rate, 100 μg/mL, with 2% as an inclusive lower bound for yes; all other cases are no.

### Prompt Check the entry CC[C@H](C)[C@H](NC(=O)[C@H](CCCNC(=N)N)NC(=O)[C@H](CCCNC(=N)N)NC(=O)[C@H](Cc1ccccc1)NC(=O)[C@H](CC(C)C)NC(=O)[C@@H](CCCNC(=N)N)NC(=O)[C@@H](N)CCCNC(=N)N)C(=O)N[C@@H](CC(C)C)C(=O)N[C@@H](CCCNC(=N)N)C(=O)N[C@@H](Cc1c[nH]c2ccccc12)C(=O)N[C@@H](CC(C)C)C(N)=O [RW-BP100-2D] (HELM PEPTIDE1{R.[dR].L.F.R.R.I.L.R.W.L.[am]}$$$$V2.0) : does Hemolytic rate, 100 μg/mL equal or exceed 2%?
### Response yes

### Prompt hey, is Hemolytic rate, 100 μg/mL for this one >= 2%? CC[C@H](C)[C@H](NC(=O)[C@H](CCCNC(=N)N)NC(=O)[C@H](CCCNC(=N)N)NC(=O)[C@H](Cc1ccccc1)NC(=O)[C@H](CC(C)C)NC(=O)[C@H](CCCNC(=N)N)NC(=O)[C@@H](N)CCCNC(=N)N)C(=O)N[C@@H](CC(C)C)C(=O)N[C@@H](CCCNC(=N)N)C(=O)N[C@@H](Cc1c[nH]c2ccccc12)C(=O)N[C@H](CC(C)C)C(N)=O [RW-BP100-11D] (HELM PEPTIDE1{R.R.L.F.R.R.I.L.R.W.[dL].[am]}$$$$V2.0)
### Response no

### Prompt Reported Hemolytic rate, 100 μg/mL at or above 2%? CC[C@H](C)[C@H](NC(=O)[C@H](CCCNC(=N)N)NC(=O)[C@H](CCCNC(=N)N)NC(=O)[C@H](Cc1ccccc1)NC(=O)[C@H](CC(C)C)NC(=O)[C@H](CCCNC(=N)N)NC(=O)[C@@H](N)CCCNC(=N)N)C(=O)N[C@@H](CC(C)C)C(=O)N[C@@H](CCCNC(=N)N)C(=O)N[C@H](Cc1c[nH]c2ccccc12)C(=O)N[C@@H](CC(C)C)C(N)=O [RW-BP100-10D] (HELM PEPTIDE1{R.R.L.F.R.R.I.L.R.[dW].L.[am]}$$$$V2.0)
### Response no

### Prompt Is it the case that CC[C@H](C)[C@H](NC(=O)[C@H](CCCNC(=N)N)NC(=O)[C@H](CCCNC(=N)N)NC(=O)[C@H](Cc1ccccc1)NC(=O)[C@H](CC(C)C)NC(=O)[C@H](CCCNC(=N)N)NC(=O)[C@@H](N)CCCNC(=N)N)C(=O)N[C@@H](CC(C)C)C(=O)N[C@H](CCCNC(=N)N)C(=O)N[C@@H](Cc1c[nH]c2ccccc12)C(=O)N[C@@H](CC(C)C)C(N)=O [RW-BP100-9D] (HELM PEPTIDE1{R.R.L.F.R.R.I.L.[dR].W.L.[am]}$$$$V2.0) has Hemolytic rate, 100 μg/mL reaching or exceeding 2%?
### Response no

### Prompt Confirm if Hemolytic rate, 100 μg/mL reported for the compound CC[C@H](C)[C@H](NC(=O)[C@H](CCCNC(=N)N)NC(=O)[C@H](CCCNC(=N)N)NC(=O)[C@@H](Cc1ccccc1)NC(=O)[C@H](CC(C)C)NC(=O)[C@H](CCCNC(=N)N)NC(=O)[C@@H](N)CCCNC(=N)N)C(=O)N[C@@H](CC(C)C)C(=O)N[C@@H](CCCNC(=N)N)C(=O)N[C@@H](Cc1c[nH]c2ccccc12)C(=O)N[C@@H](CC(C)C)C(N)=O [RW-BP100-4D] (HELM PEPTIDE1{R.R.L.[dF].R.R.I.L.R.W.L.[am]}$$$$V2.0) is 2% or above.
### Response yes

Data provenance is paper PMC8822125.
